experimental system: glycerol-3-phosphate dehydrogenase (GPDH) (Rattus norvegicus)
Construct: The activity of GPDH in intact mitochondria (0.3 mg/mL) was measured; from tissue; host or cells: rat skeletal muscle mitochondria (Wistar, Harlan Laboratories)
Sequence (P35571 43-727): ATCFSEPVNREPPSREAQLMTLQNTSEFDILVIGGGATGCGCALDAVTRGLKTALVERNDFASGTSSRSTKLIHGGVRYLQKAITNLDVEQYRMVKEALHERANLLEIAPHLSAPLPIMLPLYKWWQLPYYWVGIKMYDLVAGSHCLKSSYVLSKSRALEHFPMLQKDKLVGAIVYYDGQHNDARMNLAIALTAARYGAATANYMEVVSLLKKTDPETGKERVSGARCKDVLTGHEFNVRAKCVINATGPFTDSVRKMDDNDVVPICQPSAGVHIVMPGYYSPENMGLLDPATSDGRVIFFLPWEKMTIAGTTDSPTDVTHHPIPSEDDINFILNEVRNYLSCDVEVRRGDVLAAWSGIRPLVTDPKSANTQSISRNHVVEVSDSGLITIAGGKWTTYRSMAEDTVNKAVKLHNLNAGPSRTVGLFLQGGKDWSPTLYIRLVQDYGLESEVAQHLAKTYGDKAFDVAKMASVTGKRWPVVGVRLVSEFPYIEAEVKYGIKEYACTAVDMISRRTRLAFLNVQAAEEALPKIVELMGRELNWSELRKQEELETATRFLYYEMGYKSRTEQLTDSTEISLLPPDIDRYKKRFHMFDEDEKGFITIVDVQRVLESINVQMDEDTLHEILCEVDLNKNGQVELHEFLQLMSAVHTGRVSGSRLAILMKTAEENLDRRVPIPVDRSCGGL
experiment notes: High-throughput screen: ROS production from glycerol-3-phosphate dehydrogenase (GPDH)
Format: biochemical
test conditions: Table 9; percent change in ROS from DMSO controls
Label 1 when GPDH is at or above -2; otherwise label 0.

[[record]]
compound = "CN(C)CCCN(CCCN(C)C)Cc1cccnc1"
category_label = 0

[[record]]
compound = "Cc1ccc(S(=O)(=O)Nc2nnc(C)s2)cc1"
category_label = 1

[[record]]
compound = "Cc1ccccc1NS(=O)(=O)c1ccc(-c2ccc(S(=O)(=O)Nc3ccccc3C)cc2)cc1"
category_label = 1

[[record]]
compound = "C=CCSc1nc(N)c(C#N)c(CC)c1C#N"
category_label = 1

[[record]]
compound = "O=C(Nc1ccccc1F)[C@@H]1C2C=CC(C2)[C@@H]1C(=O)O (some centres unmarked)"
category_label = 1


----------
experimental system: succinate dehydrogenase/complex II (SDH) (Rattus norvegicus, UniProt P21913+Q641Z9+Q6PCT8+Q920L2)
Construct: freshly isolated muscle mitochondria were assayed; from tissue; host or cells: rat skeletal muscle mitochondria (Wistar, Harlan Laboratories)
Sequence (Q920L2 35-656): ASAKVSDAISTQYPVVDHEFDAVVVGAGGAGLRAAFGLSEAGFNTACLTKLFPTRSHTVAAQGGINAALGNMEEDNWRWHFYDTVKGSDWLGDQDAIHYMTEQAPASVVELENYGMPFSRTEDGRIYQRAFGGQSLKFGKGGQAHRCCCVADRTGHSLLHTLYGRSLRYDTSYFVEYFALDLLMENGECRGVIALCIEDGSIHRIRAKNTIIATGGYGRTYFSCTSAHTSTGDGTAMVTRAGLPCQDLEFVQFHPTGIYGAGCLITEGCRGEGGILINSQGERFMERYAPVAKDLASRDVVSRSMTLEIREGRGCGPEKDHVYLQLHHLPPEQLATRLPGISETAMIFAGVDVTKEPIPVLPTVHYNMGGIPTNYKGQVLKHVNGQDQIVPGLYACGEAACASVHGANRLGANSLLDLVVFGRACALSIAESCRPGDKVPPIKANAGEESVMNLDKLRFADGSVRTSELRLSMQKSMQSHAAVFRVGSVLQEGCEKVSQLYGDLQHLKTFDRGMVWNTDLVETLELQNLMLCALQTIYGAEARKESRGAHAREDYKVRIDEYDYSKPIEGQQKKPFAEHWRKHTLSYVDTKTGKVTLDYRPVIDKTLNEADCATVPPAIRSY
Sequence (P21913 31-282): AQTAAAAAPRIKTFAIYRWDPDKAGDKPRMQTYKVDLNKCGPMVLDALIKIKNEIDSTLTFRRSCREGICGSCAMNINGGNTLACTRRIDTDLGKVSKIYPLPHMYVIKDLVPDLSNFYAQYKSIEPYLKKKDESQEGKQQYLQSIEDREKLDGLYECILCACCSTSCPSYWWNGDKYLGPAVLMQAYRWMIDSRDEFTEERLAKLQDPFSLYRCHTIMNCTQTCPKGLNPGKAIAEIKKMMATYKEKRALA
Sequence (Q641Z9 30-169 limits assumed): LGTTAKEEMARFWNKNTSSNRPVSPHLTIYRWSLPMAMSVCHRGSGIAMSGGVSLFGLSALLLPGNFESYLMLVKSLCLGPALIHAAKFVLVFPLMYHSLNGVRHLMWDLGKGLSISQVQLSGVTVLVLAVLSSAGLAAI
Sequence (Q6PCT8 57-159): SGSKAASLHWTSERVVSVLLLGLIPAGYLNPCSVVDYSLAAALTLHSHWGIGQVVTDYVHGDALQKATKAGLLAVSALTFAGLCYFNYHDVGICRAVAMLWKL
experiment notes: High-throughput screen: ROS production from succinate dehydrogenase/complex II (SDH)
Assay type: biochemical
test conditions: Table 5; 15 μM palmitoyl carnitine, 2.5 μM antimycin A, 2 μM myxothiazol; compounds 2.5 μM; percent change from DMSO
Label y when % Reduction in ROS Production (SDH) is at or above -30%; otherwise label n.

[[record]]
compound = "Clc1ccc(N2CCN(CC(c3ccccc3)c3ccccc3)CC2)cc1"
category_label = "y"

[[record]]
compound = "CC1CC(C)(C)N(C=O)c2ccccc21 (stereo not shown)"
category_label = "n"

[[record]]
compound = "COc1ccc(C2C(C#N)=C(N)Oc3c2c(=O)oc2ccccc32)cc1O (stereo not shown)"
category_label = "y"

[[record]]
compound = "O=C(Nc1ccccc1[N+](=O)[O-])c1cccc(S(=O)(=O)Nc2ccccc2)c1"
category_label = "y"

[[record]]
compound = "COc1ccc(NC(=S)NC(=O)c2ccco2)cc1"
category_label = "y"

[[record]]
compound = "Oc1nnc(Cc2ccncc2)c2ccccc12"
category_label = "y"

[[record]]
compound = "Cc1cc(OCC(O)CN(Cc2ccccc2)C(C)(C)C)ccc1[N+](=O)[O-] (stereo not shown)"
category_label = "n"


Reference for the values: patent US20140128352A1
